The following compounds are listed with their measured melting point values.

# Compound, melting point
measured = [
    ("CC1(C)OC(c2ccc(S(C)(=O)=O)cc2F)=C(c2cc(F)ccc2F)C1=O", "150 to 151 °C"),
]

[in] Identify the reported melting point for the following entry. CC1(C)OC(c2ccc(S(C)(=O)=O)c(Cl)c2)=C(c2cccc(Cl)c2)C1=O
[out] 188 to 189 °C

[in] Identify the reported melting point for the following entry. CC1(C)OC(c2ccc(S(C)(=O)=O)cc2)=C(c2cccc([N+](=O)[O-])c2)C1=O
[out] 158 to 159 °C

----------
target: COX-1 (Mus musculus, UniProt P22437); experiment: Evaluation of COX-1 activity: PGE2 formation in mouse peritoneal macrophages without aspirin and LPS treatment; assay type: cell-based
Sequence (P22437 27-602): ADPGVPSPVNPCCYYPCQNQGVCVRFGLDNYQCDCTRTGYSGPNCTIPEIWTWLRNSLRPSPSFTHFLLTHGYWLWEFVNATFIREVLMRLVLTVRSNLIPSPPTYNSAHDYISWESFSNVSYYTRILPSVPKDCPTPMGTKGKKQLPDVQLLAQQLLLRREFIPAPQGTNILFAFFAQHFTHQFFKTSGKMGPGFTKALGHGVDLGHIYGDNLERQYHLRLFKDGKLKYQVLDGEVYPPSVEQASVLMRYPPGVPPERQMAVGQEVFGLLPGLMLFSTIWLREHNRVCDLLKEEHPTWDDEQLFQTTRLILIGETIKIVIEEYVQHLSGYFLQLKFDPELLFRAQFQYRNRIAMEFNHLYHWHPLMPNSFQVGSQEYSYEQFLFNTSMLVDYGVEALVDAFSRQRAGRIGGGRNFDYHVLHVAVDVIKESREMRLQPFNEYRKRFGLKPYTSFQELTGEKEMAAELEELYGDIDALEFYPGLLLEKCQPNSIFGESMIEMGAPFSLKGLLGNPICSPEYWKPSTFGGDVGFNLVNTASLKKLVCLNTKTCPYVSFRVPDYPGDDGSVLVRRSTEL
Metric: IC50, μg/ml COX-1 (µg/mL)

The cases that follow already have their IC50, μg/ml COX-1 on record.
# Molecule, IC50, μg/ml COX-1 / µg/mL
rows = [
    ("CC1(C)OC(c2ccc(S(C)(=O)=O)c(F)c2)=C(c2ccccc2)C1=O", 20),
    ("CCSc1ccc(C2=C(c3ccc(S(N)(=O)=O)cc3)OC(C)(C)C2=O)cc1", 0.83),
]

a = CC1(C)OC(c2ccc(S(C)(=O)=O)cc2)=C(c2cc(F)cc(F)c2)C1=O
b = CCC1(C)OC(c2ccc(S(N)(=O)=O)cc2)=C(c2ccc(C(C)=O)cc2)C1=O (centres unmarked)
c = CC1(C)OC(c2ccc(S(N)(=O)=O)c(Br)c2)=C(c2ccccc2)C1=O
d = CC1(C)OC(c2ccc(S(C)(=O)=O)c(Cl)c2)=C(c2ccc(F)cc2)C1=O
e = Cc1ccc(F)cc1C1=C(c2ccc(S(C)(=O)=O)cc2)OC(C)(C)C1=O
[in] List by increasing IC50, μg/ml COX-1. Your answer should be the labels, listed in the requested order.
[out] b, d, e, a, c

----------
Metric: melting point

The cases that follow already have their melting point on record.
# Structure Smiles String, melting point
records = [
    ("CC1(C)OC(c2ccc(S(C)(=O)=O)cc2)=C(c2ccc(F)c(Cl)c2)C1=O", "162 to 164 °C"),
    ("CC1(C)OC(c2ccc(S(C)(=O)=O)c(Cl)c2)=C(c2cccc(F)c2)C1=O", "163 to 164 °C"),
    ("CC1(C)OC(c2ccc(S(C)(=O)=O)c(F)c2)=C(c2ccc(F)cc2)C1=O", "160 to 161 °C"),
    ("CC1(C)OC(c2ccc(S(N)(=O)=O)cc2)=C(c2cccc(Cl)c2)C1=O", "194 to 195 °C"),
    ("CC1(C)OC(c2ccc(S(C)(=O)=O)cc2F)=C(c2cc(F)cc(F)c2)C1=O", "118 to 119 °C"),
    ("CC1(C)OC(c2ccc(S(C)(=O)=O)c(F)c2)=C(c2ccc(F)c(F)c2)C1=O", "158 to 159 °C"),
]

[in] Identify the reported melting point for the following entry. CC1(C)OC(c2ccc(S(C)(=O)=O)c(F)c2)=C(c2ccc(C(F)(F)F)cc2)C1=O
[out] 134 to 135 °C

[in] Identify the reported melting point for the following entry. CC1(C)OC(c2ccc(S(C)(=O)=O)cc2)=C(c2ccc3c(c2)OCO3)C1=O
[out] 178 to 179 °C
